Molecular target: AgSla1-D3
Assay: SPOT peptide array binding signal intensity (averaged, normalized) (arbitrary units (background-subtracted, floor 0; scale differs between SH3 domains)); higher = stronger binding of the SH3 domain to the peptide
RESULT_TYPE: SPOT peptide array binding signal intensity
Numbers only.

Give SPOT peptide array binding signal intensity for each of the items listed below.
1. NSMRPPLLIPAATTK
2. TTNRGPPPLPPRANV

1: 1.75; 2: 4

What SPOT peptide array binding signal intensity value was documented for this binder, "PLQSKIPMLPSRRTM" ?
6.5
